B1: Hairpin Ribozyme (parent)
chain: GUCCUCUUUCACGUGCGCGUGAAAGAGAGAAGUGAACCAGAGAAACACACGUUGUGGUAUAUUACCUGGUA

Variants of: B1
ASSAY NOTES: self-cleavage, relative activity (ratio to wild type); higher = more cleavage; co-transcriptional
READOUT TYPE: self-cleavage

Identify self-cleavage associated with the variant `GUCCUCUUUCACGUGCGCGUGAAAGAGAGAAGUGAACCAGAGAAACACACGUUGUGGUAUAUUACCUGCUG` 0.316

Identify self-cleavage associated with the variant `GUCCUCUUUCACGUGCGCGUGAAAGAGAGAAGUGAACCCGAGAAACACACGUUAUGGUAUAUUACCUGGUA` 0.121

Identify self-cleavage associated with the variant `GUCCUCUUUCACGUGCGCGUGAAAGAGAGAACUGAAUCAGAGAAACACACGUUGUGGUAUAUUACCUGGUA` 0.131

Identify self-cleavage associated with the variant `GUCCACUUACACGUGCGCGUGAAAGAGAGAAGUGAACCAGAGAAACACACGUUGUGGUAUAUUACCUGGUA` 0.371

Identify self-cleavage associated with the variant `GUCCUCUUUCACGUGCGCGUGAGAGAGAGAAGUGAACCAGAGAAACACACGUUGUGGUAUAGUACCUGGUA` 0.0705

Identify self-cleavage associated with the variant `GUACUCUUUCACGUGCGCGUGAAAGAGUGAAGUGAACCAGAGAAACACACGUUGUGGUAUAUUACCUGGUA` 0.689

Identify self-cleavage associated with the variant `GUCCUCUUUCACGUGCGCGUGAAAGAGAGAAGUGAACGAGAGAAACACACGUUGUGGUAUAUUACCUUGUA` 0.514

Identify self-cleavage associated with the variant `GACCUCUUUCACGUGCGCGUGAAAGUGAGAAGUGAACCAGAGAAACACACGUUGUGGUAUAUUACCUGGUA` 0.253

Identify self-cleavage associated with the variant `GUCCUCUUUCACGUGCGCGUGAAAGAGAGAAGUAAACCAGAGAAACACACGUUGUGGUACAUUACCUGGUA` 1.5

Identify self-cleavage associated with the variant `GUCCUCUUUCACGUGCGCGUGAAGUAGAGAAGUGAACCAGAGAAACACACGUUGUGGUAUAUUACCUGGUA` 0.527

Identify self-cleavage associated with the variant `GUCCUCUUUCACGUGCGCGUGAAAGAGAGAAGUCAACCUGAGAAACACACGUUGUGGUAUAUUACCUGGUA` 1.02

Identify self-cleavage associated with the variant `GUCCGCUUUCAAGUGCGCGUGAAAGAGAGAAGUGAACCAGAGAAACACACGUUGUGGUAUAUUACCUGGUA` 0.124

Identify self-cleavage associated with the variant `GUGCUCUUUCAAGUGCGCGUGAAAGAGAGAAGUGAACCAGAGAAACACACGUUGUGGUAUAUUACCUGGUA` 0.254

Identify self-cleavage associated with the variant `GUCCUCUUUCACGUGCGCGAGAAAGAGAGAAGUGAACCAGAGAAACACAAGUUGUGGUAUAUUACCUGGUA` 0.423

Identify self-cleavage associated with the variant `GUCCUCUUUCACGUGCGCCUGAAAGAGAGAAGUGAACCAGAGAAACACACGUUGUGGGAUAUUACCUGGUA` 0.705

Identify self-cleavage associated with the variant `GUCCUCCUUCACGUGCGCGUGAAAGAGAGAAGUGAACCAGAGAAACACACGUUGCGGUAUAUUACCUGGUA` 0.418

Identify self-cleavage associated with the variant `GUACUCUUUCACGUGCGCGUGAAAGAGAGAUGUGAACCAGAGAAACACACGUUGUGGUAUAUUACCUGGUA` 0.155

Identify self-cleavage associated with the variant `GUCCUCUUUCACCUGCGCUUGAAAGAGAGAAGUGAACCAGAGAAACACACGUUGUGGUAUAUUACCUGGUA` 0.752

Identify self-cleavage associated with the variant `GUCCUCUUUCACGUGCGCGUGAAAGAGAGAAGUGAACCAGAGAAACACACGUUGUGGGAUAUUACCUGGAA` 0.849

Identify self-cleavage associated with the variant `GUCCUCUUUCACGUGCGCGUGAAAGAGAGAAGUGACCCAGAGGAACACACGUUGUGGUAUAUUACCUGGUA` 0.131

Identify self-cleavage associated with the variant `GUCCUCUUUCACGUGCGCGUCAAGGAGAGAAGUGAACCAGAGAAACACACGUUGUGGUAUAUUACCUGGUA` 0.555

Identify self-cleavage associated with the variant `GUCCUCUUUCACGUGCGCGUGAAAAAGAGAAGUGAACCAGAGAAACGCACGUUGUGGUAUAUUACCUGGUA` 0.277
